// data source = ChEMBL document CHEMBL1212800

test-details: Apparent volume of distribution with respect to the bioavailability in human by covariate model
Format: ADME, organism-based
settings: in vivo, read-out: Vc/F
readout-type: Vd/F (L)

INSERT INTO results (smiles_text, readout_type, assay_value) VALUES
  ('COC(=O)N[C@H](C(=O)N[C@@H](Cc1ccccc1)[C@@H](O)CN(Cc1ccc(-c2ccccn2)cc1)NC(=O)[C@@H](NC(=O)OC)C(C)(C)C)C(C)(C)C', 'Vd/F', 79.7);

* * *

test-details: Half life in patient with => 40 IU/liter ALAT level by one-compartment model
Format: ADME, organism-based
settings: human, in vivo
readout-type: half-life (h)

INSERT INTO measurements (molecule, readout_type, value_units, assay_value) VALUES
  ('COC(=O)N[C@H](C(=O)N[C@@H](Cc1ccccc1)[C@@H](O)CN(Cc1ccc(-c2ccccn2)cc1)NC(=O)[C@@H](NC(=O)OC)C(C)(C)C)C(C)(C)C [ATAZANAVIR]', 'half-life', 'h', 7.8);
